Field: normalized growth. Provide a value for each of the compounds that follow.
Experiment: chemical genetic growth profiling, strain panel (AID 1159580);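 note: tested at 20 µM; growth read once vehicle control cultures reached saturation at 30 °C; 1 = growth at the plate median or of vehicle wells; lower values mean less growth of the strain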
Conditions: S. cerevisiae deletion strains, growth OD, locus YOR265W, strain rbl2, active compounds read low
The campaign covered roughly 5,500 compounds. About 2,000 (36%) were called active. Another 18% or so got no clear call; they are omitted. The list shows a part of the results.

Quick note, normalized growth for NC(=NCCC[C@H](N)C(=O)O)NC(CCC(=O)O)C(=O)O (stereo not given in full) landed at 1 (inactive)

Quick note, normalized growth for CC(=O)O[C@@H]1CC2C(C)(C)C=CC(=O)[C@]2(C)C2CC[C@@]3(C)[C@H](c4ccoc4)OC(=O)C4OC43[C@@]21C (stereo not given in full) landed at 0.997 (inactive)

Quick note, normalized growth for CCCC(C)C1(CC)C(=O)N=C(S)NC1=O (stereo not given) landed at 0.986 (inactive)

Quick note, normalized growth for COc1c2c(cc3c1OCO3)CCN(C)C2 landed at 1.01 (inactive)

Quick note, normalized growth for OC[C@@H]1CCCN2CCCC[C@H]12 landed at 1.01 (inactive)

Quick note, normalized growth for COc1cc(OC)c2c(=O)c(-c3ccccc3)c(C)oc2c1OC landed at 0.987 (inactive)

Quick note, normalized growth for CC(C)NCC(O)c1ccc(O)c(O)c1 (stereo not given) landed at 0.996 (inactive)

Quick note, normalized growth for CCN(CC)CCOc1ccc2c(c1)C(=O)c1cc(OCCN(CC)CC)ccc1-2 landed at 0.976 (inactive)

Quick note, normalized growth for CCCC1O[C@@H]2CC3C4CCC5=CC(=O)C=CC5(C)C4[C@@H](O)CC3(C)[C@]2(C(=O)CO)O1 (stereo not given in full) landed at 1 (inactive)

Quick note, normalized growth for CC(=O)/C(=C\c1ccccc1)CC(=O)O landed at 0.993 (inactive)

Quick note, normalized growth for COc1cccc(/C=C/C(=O)O)c1C(C)C landed at 0.973 (inactive)

Quick note, normalized growth for C/C=C/c1ccc2c(c1)OCO2 landed at 1.02 (inactive)

Quick note, normalized growth for C1CCN2C[C@@H]3C[C@H](CN4CCCC[C@@H]34)[C@H]2C1 landed at 1 (inactive)

Quick note, normalized growth for NCC(O)c1ccc(O)cc1 (stereo not given) landed at 1 (inactive)

Quick note, normalized growth for CC(=O)Nc1cc([As](=O)(O)O)ccc1O landed at 0.998 (inactive)

Quick note, normalized growth for CNC[C@@H](O)c1ccc(O)c(O)c1 landed at 1 (inactive)

Quick note, normalized growth for CC1(C)CCCC2(C)C3C1[C@@H](O)C2(C)C[C@H]3O (stereo not given in full) landed at 1 (inactive)

Quick note, normalized growth for C1CNCCN1 landed at 1.01 (inactive)

Quick note, normalized growth for O=C1O[C@H](C(O)CO)C(O)=C1O (stereo not given in full) landed at 0.984 (inactive)

Quick note, normalized growth for CC1(C)C(C(Cl)Cl)C2(Cl)C(Cl)C(Cl)C1(Cl)C2(Cl)Cl (stereo not given) landed at 0.98 (inactive)

Quick note, normalized growth for Nc1ncnc2c1ncn2C1C[C@H](O)[C@@H](CO)O1 (stereo not given in full) landed at 0.987 (inactive)

Quick note, normalized growth for CCCC(C)C1(CC)C(=O)NC(=O)NC1=O (stereo not given) landed at 1 (inactive)

Quick note, normalized growth for C=CC(C1=CC(=O)C(OC)=CC1=O)c1ccc(O)cc1 (stereo not given) landed at 1 (inactive)

Quick note, normalized growth for O=C(O)CCCCC1CCSS1 (stereo not given) landed at 0.973 (inactive)

Quick note, normalized growth for Nc1ncnc2c1ncn2C1O[C@H](COP(=O)(O)O)[C@@H](O)[C@H]1O (stereo not given in full) landed at 1 (inactive)

====

Experiment: chemical genetic growth profiling, strain panel (AID 1159580);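 note: tested at 20 µM; growth read once vehicle control cultures reached saturation at 30 °C; 1 = growth at the plate median or of vehicle wells; lower values mean less growth of the strain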
Settings: S. cerevisiae deletion strains, growth OD, locus YDL185W, strain tfp1, active compounds read low
In all, about 5,500 compounds went through this assay and about 2,000 (36%) were called active. Not shown: some 18% with an inconclusive outcome. The list shows a part of the results.
Field: normalized growth. Provide a value for each of the compounds that follow.
Could you keep your reply to the number by itself?

Quick note, normalized growth for C=CC(C1=CC(=O)C(OC)=CC1=O)c1ccc(OC)cc1 (stereo unspecified) landed at 0.976

Quick note, normalized growth for Nc1ncn([C@@H]2O[C@H](CO)[C@@H](O)[C@H]2O)c(=O)n1 landed at 0.99

Quick note, normalized growth for CCCC(C)C1(CC)C(=O)N=C(S)NC1=O (stereo unspecified) landed at 1.01

Quick note, normalized growth for C[C@H](N)[C@H](O)c1ccc(O)c(O)c1 landed at 0.982

Quick note, normalized growth for COC(C)(C)CCC[C@H](C)C/C=C/C(C)=C/C(=O)OC(C)C landed at 1.01

Quick note, normalized growth for C1CNCCN1 landed at 1.02

Quick note, normalized growth for CC/C(=C(\c1ccccc1)c1ccc(OCCN(C)C)cc1)c1ccccc1 landed at 0.606

Quick note, normalized growth for COC(=O)[C@]1(C)CC[C@]2(C)CC[C@]3(C)C4=CCc5c(cc(O)c(O)c5C)[C@]4(C)CC[C@@]3(C)C2C1 (stereo partly specified) landed at 0.984

Quick note, normalized growth for C=CCC1(C(C)CCC)C(=O)N=C(S)NC1=O (stereo unspecified) landed at 0.958

Quick note, normalized growth for Cc1c(O)c(O)cc2c1CC=C1[C@@]2(C)CC[C@@]2(C)C3C[C@](C)(C(=O)O)CC[C@]3(C)CC[C@]12C (stereo partly specified) landed at 1.01

Quick note, normalized growth for CN/C(=C\[N+](=O)[O-])NCCSCc1ccc(CN(C)C)o1 landed at 0.987

Quick note, normalized growth for CC1(C)C(=O)C=CC2(C)C3CCC4(C)C(c5ccoc5)CC5OC54C3C(O)CC12 (stereo unspecified) landed at 1.02

Quick note, normalized growth for COc1cc(C(=O)NCc2ccc(OCCN(C)C)cc2)cc(OC)c1OC landed at 0.979

Quick note, normalized growth for Nc1ncnc2c1ncn2[C@@H]1O[C@H](CO)[C@@H](O)[C@H]1O landed at 0.955

Quick note, normalized growth for Nc1ncnc2c1ncn2C1O[C@H](COP(=O)(O)O)[C@@H](O)[C@H]1O (stereo partly specified) landed at 0.992

Quick note, normalized growth for OC[C@@H]1CCCN2CCCC[C@H]12 landed at 1.02

====

Experiment: chemical genetic growth profiling, strain panel (AID 1159580);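 note: tested at 20 µM; growth read once vehicle control cultures reached saturation at 30 °C; 1 = growth at the plate median or of vehicle wells; lower values mean less growth of the strain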
Conditions: S. cerevisiae deletion strains, growth OD, locus YDL005C, strain med2, active compounds read low
About 2,000 (36%) of roughly 5,500 compounds were called active. Inconclusive results (about 18%) are left out. The list shows a part of the results.
Field: normalized growth. Provide a value for each of the molecules that follow.
Could you keep your reply to the number by itself?

Quick note, normalized growth for C=CC(C1=CC(=O)C=CC1=O)c1ccccc1 (stereo not drawn) landed at 1.01

Quick note, normalized growth for O=[N+]([O-])c1cc([As](=O)(O)O)ccc1O landed at 0.972

Quick note, normalized growth for NCC(O)c1ccc(O)cc1 (stereo not drawn) landed at 0.998

Quick note, normalized growth for Cc1ccc2c(Cl)cc(Cl)c(O)c2n1 landed at 1.02

Quick note, normalized growth for CC(C)NCC(O)c1ccc2ccccc2c1 (stereo not drawn) landed at 0.999

Quick note, normalized growth for O=C(O)CF landed at 1.02

Quick note, normalized growth for CC(=O)/C(=C\c1ccccc1)CC(=O)O landed at 0.998

Quick note, normalized growth for O=C(O)C1=CCNCC1 landed at 1.01

====

Test: chemical genetic growth profiling, strain panel (AID 1159580);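 note: tested at 20 µM; growth read once vehicle control cultures reached saturation at 30 °C; 1 = growth at the plate median or of vehicle wells; lower values mean less growth of the strain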
Settings: S. cerevisiae deletion strains, growth OD, locus YGL253W, strain hxk2, active compounds read low
In all, about 5,500 compounds went through this assay and about 2,000 (36%) were called active. Another 18% or so got no clear call; they are omitted. Some of the results follow.
Measure: normalized growth
Could you keep your reply to the number by itself?

Quick note, normalized growth for O=C(O)c1ccccc1Nc1ccccc1 landed at 0.926

Quick note, normalized growth for CCOP(=S)(OCC)SCn1c(=O)oc2cc(Cl)ccc21 landed at 0.961

Quick note, normalized growth for COc1cccc(/C=C/C(=O)O)c1C(C)C landed at 0.98

Quick note, normalized growth for O[N+]1=CC=CCC1=S.On1ccccc1=S.[Zn] landed at 0.0558

Quick note, normalized growth for COC(C)(C)CCC[C@H](C)C/C=C/C(C)=C/C(=O)OC(C)C landed at 1

Quick note, normalized growth for Nc1ncn([C@@H]2O[C@H](CO)[C@@H](O)[C@H]2O)c(=O)n1 landed at 0.989

Quick note, normalized growth for C=CC(C1=CC(=O)C(OC)=CC1=O)c1ccc(O)cc1 (configuration not stated) landed at 1.02

Quick note, normalized growth for CC(C)(C)NCC(O)c1ccccc1Cl (configuration not stated) landed at 0.994

Quick note, normalized growth for COc1cc(OC)c2c(=O)c(-c3ccccc3)c(C)oc2c1OC landed at 0.994

Quick note, normalized growth for CCCC(C)C1(CC)C(=O)N=C(S)NC1=O (configuration not stated) landed at 1.01

Quick note, normalized growth for C=C(C)[C@H]1CC=C(C(=O)O)CC1 landed at 0.944

Quick note, normalized growth for CCCCC(CC)CN1CN(CC(CC)CCCC)CC(C)(N)C1 (configuration not stated) landed at 0.0538

Quick note, normalized growth for Nc1ccc(S(=O)(=O)Nc2ccccn2)cc1 landed at 0.999

Quick note, normalized growth for C=C(NC(=O)C(=C)NC(=O)c1csc(C2=NC3c4csc(n4)C4NC(=O)c5csc(n5)C(C(C)(O)C(C)O)NC(=O)C5CSC(=N5)C(=CC)NC(=O)C(C(C)O)NC(=O)c5csc(n5)C3(CC2)NC(=O)C(C)NC(=O)C(=C)NC(=O)C(C)NC(=O)C(C(C)CC)NC2C=Cc3c(C(C)O)cc(nc3C2O)C(=O)OC4C)n1)C(N)=O (configuration not stated) landed at 1.01

Quick note, normalized growth for Cc1c(Nc2ncccc2C(=O)O)cccc1C(F)(F)F landed at 0.968

Quick note, normalized growth for C=CC(C1=CC(=O)C=CC1=O)c1ccccc1 (configuration not stated) landed at 1.02

Quick note, normalized growth for OC[C@@H]1CCCN2CCCC[C@H]12 landed at 1.05
